measurement_target: IRAK3 (Homo sapiens)
Construct: IRAK Endogenous HTRF Degradation Assay; endogenous in cells
method_notes: IRAK endogenous HTRF degradation assay (Total-IRAK3 HTRF kit)
Format: cell-based
condition_label: overnight incubation, lowest percentage of protein remaining
test_readout: IRAK3 HTRF degradation Ymin (%)
Number in %, nothing else.

What value of measured IRAK3 HTRF degradation Ymin is listed for Cc1cc(-c2cnc(Nc3cnn(C4CCN(CCN5CCN(c6ccc7c(C8CCC(=O)NC8=O)nn(C)c7c6)CC5)CC4)c3)c3nccn23)c(F)cc1F (stereo not drawn) [Compound 39] ?
14.

What would you report for Cc1cc(-c2cnc(Nc3cnn(C4CCN(CC(=O)N5CCN(c6ccc7c(c6)C(=O)N(C6CCC(=O)NC6=O)C7=O)CC5)CC4)c3)c3nccn23)c(F)cc1F (stereo not drawn) [Compound 6] ?
23

Item: Cc1cccc(-c2cnc(Nc3cnn(C4CCN(CC(=O)N5CCN(c6ccc7c(c6)CN(C6CCC(=O)NC6=O)C7=O)CC5)CC4)c3)c3nccn23)c1 (stereo not drawn) [Compound 19]
18

----------
measurement_target: IRAK3-ePL (Homo sapiens)
Construct: expressed in transfected cells; host or cells: 293T CRBN OE/GSPT1 G575N KI cells, lentiviral transduction, puromycin selected
method_notes: IRAK3-ePL overexpressing degradation assay (InCELL Hunter luminescence, dose response)
Format: cell-based
condition_label: lowest percentage of target protein remaining following compound treatment
Mark yes for IRAK3 ePL degradation Ymin under 30%, no if at or over.

Strictly below 30% in IRAK3 ePL degradation Ymin? O=C1CCC(c2ccc(N3CCN(CC[C@H]4CC[C@H](n5cc(Nc6ncc(C7CC7)n7ccnc67)cn5)CC4)CC3)cc2)C(=O)N1 (stereo partly drawn)
yes

Then what about the molecule Cc1cccc(-c2cnc(Nc3cnn(C4CCN(CC(=O)N5CCN(c6ccc7c(c6)C(=O)N(C6CCC(=O)NC6=O)C7=O)CC5)CC4)c3)c3nccn23)c1 (stereo not drawn) ?
no

Next molecule up: Cc1ccccc1-c1cnc(Nc2cnn(C3CCN(CCN4CCN(c5ccc(C6CCC(=O)NC6=O)cc5)CC4)CC3)c2)c2nccn12 (stereo not drawn)
yes

Another molecule to check: Cc1cc(-c2cnc(Nc3cnn([C@H]4CCN(CCN5CCN(c6ccc(C7CCC(=O)NC7=O)cc6)CC5)C[C@@H]4F)c3)c3nccn23)c(F)cc1F (stereo partly drawn)
yes

What do you have for Cc1cc(-c2cnc(Nc3cnn([C@H]4CC[C@H](CN5CCN(c6ccc(C7CCC(=O)NC7=O)cc6)CC5)CC4)c3)c3nccn23)c(F)cc1F (stereo partly drawn) ?
no

Moving on to O=C1CCC(c2ccc(N3CCN(CCN4CCC(n5cc(Nc6ncc(-c7ccc(F)cc7)n7ccnc67)cn5)CC4)CC3)cc2)C(=O)N1 (stereo not drawn)
yes

----------
measurement_target: IRAK3-ePL (Homo sapiens)
Construct: expressed in transfected cells; host or cells: 293T CRBN OE/GSPT1 G575N KI cells, lentiviral transduction, puromycin selected
method_notes: IRAK3-ePL overexpressing degradation assay (InCELL Hunter luminescence, dose response)
Format: cell-based
condition_label: read-out: IRAK3 ePL degradation EC50
test_readout: DC50 (nM)
I only need the number, in nM, no unit after it.

Query: DC50; subject: Cn1cc(-c2cnc(Nc3cnn(C4CCN(CCN5CCN(c6ccc(C7CCC(=O)NC7=O)cc6)CC5)CC4)c3)c3nccn23)cn1 (stereo not drawn)
0.51

And then Cc1cc(-c2cnc(Nc3cnn(C4CCN(CCN5CCN(c6ccc([C@@]7(C)CCC(=O)NC7=O)cc6)CC5)CC4)c3)c3nccn23)c(F)cc1F , what is it?
1.1

Please give the result for Cc1cc(-c2cnc(Nc3cnn([C@H]4CC[C@@H](CCN5CCN(c6ccc(C7CCC(=O)NC7=O)cc6)CC5)CC4)c3)c3nccn23)c(F)cc1F (stereo partly drawn) too.
1.1

What do we get for Cc1cc(-c2cnc(Nc3cnn(C4CCN(CCN5CCN(c6ccc7c(C8CCC(=O)NC8=O)nn(C)c7c6)CC5)CC4)c3)c3nccn23)c(F)cc1F (stereo not drawn) ?
0.51

Same question, COc1cc(C2CCC(=O)NC2=O)ccc1N1CCN(CCN2CCC(n3cc(Nc4ncc(-c5cc(C)c(F)cc5F)n5ccnc45)cn3)CC2)CC1 (stereo not drawn) this time
0.51

Please give the result for Cc1cc(-c2cnc(Nc3cnn(C4CCN(CCN5CCN(c6cccc(C7CCC(=O)NC7=O)c6)CC5)CC4)c3)c3nccn23)c(F)cc1F (stereo not drawn) too.
38
